molecular target: T1, Cynomolgus CD3 on Cyno CD3+ Jurkat cells (cynomolgus, UniProt Q95LI5 22-198); test: cell binding, cyno CD3+ Jurkat cells
T1 construct: whole, on cells; CD3 on cells; also called cCD3
T1 sequence (Q95LI5 22-198): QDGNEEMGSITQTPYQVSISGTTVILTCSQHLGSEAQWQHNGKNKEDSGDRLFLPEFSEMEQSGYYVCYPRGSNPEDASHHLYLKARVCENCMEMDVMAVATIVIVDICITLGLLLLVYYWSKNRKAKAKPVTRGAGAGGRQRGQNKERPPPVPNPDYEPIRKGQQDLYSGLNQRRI
Measurement type: Cell Binding Fold Over Background (FOB)
One number for each entry, in FOB.

Example entries and their recorded answers appear below.
Binder	Cell Binding Fold Over Background (FOB)
ADI-45959 (antibody, V domains shown, also called Ab13) VH: QVQLVQSGAEVKKPGASVKVSCKASGFNIKDYYMHWVRQAPGQRLEWIGWIDLENANTVYDAKFQGRVTITRDTSASTAYMELSSLRSEDTAVYYCARDAYGRYFYDVWGQGTLVTVSS VL: DIVMSQSPDSLAVSLGERATINCKSSQSLLNARTGKNYLAWYQQKPGQPPKLLIYWASTRSSGVPDRFSGSGSGTDFTLTISSLQAEDVAVYYCVQSYFRRTFGGGTKVEIK	30
ADI-46359 (antibody, V domains shown, also called Ab42) VH: QVQLVQSGAEVKKPGASVKVSCKASGFNIKDYYMHWVRQAPGQRLEWIGWIDLENANTVYDAKFQGRVTITRDTSASTAYMELSSLRSEDTAVYYCARDAYGQYFYDVWGQGTLVTVSS VL: DIVMTQSPDSLAVSLGERATINCKSSQSLLNARTGKNYLAWYQQKPGQPPKLLIYWASTRESGVPDRFSGSGSGTDFTLTISSLQAEDVAVYYCTQSYFRRTFGGGTKVEIK	28

As a next step, examine the binder that follows.
Prompt: Report Cell Binding Fold Over Background (FOB) for ADI-45975 (antibody, V domains shown, also called Ab11) VH: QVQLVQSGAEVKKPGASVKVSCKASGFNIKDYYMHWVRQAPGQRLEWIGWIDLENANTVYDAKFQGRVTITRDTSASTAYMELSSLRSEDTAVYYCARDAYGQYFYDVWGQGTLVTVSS VL: DIVMTQSPDSLAVSLGERATINCKSSQSLLNARTRKNYLAWYQQKPGQPPKLLIYWASTRESGVPDRFSGSGSGTDFTLTISSLQAEDVAVYYCKQSYFRRTFGGGTKVEIK please.
Response: 17

This collection of values is drawn from patent US20260209352A1.
